System: PC-3
Test: NCI tumour cell line growth inhibition, 48 h
Activity calls are given as the source filed them. Cut-off read from the data, not from the text of the source: active = GI50 up to about 1.1 µM and inactive = higher.
Assign a class; possible classes are active, inactive

Observe how each entry below is paired with its result.
INSERT INTO results (compound, label_value) VALUES
  ('CC#CC(O)(C(=O)OC1CCCN(C)C1)C1=CC=CCC1 (configuration not stated)', 'inactive'),
  ('NC(=O)c1nnsc1NN=O', 'inactive'),
  ('Cc1ccc(S(=O)(=O)NC(=O)NC(CO)C(=O)O)cc1 (configuration not stated)', 'inactive'),
  ('CCOC(=O)C(NC(=O)c1ccccc1)(N1CCN(c2cc3c(cc2F)c(=O)c(C(=O)O)cn3CC)CC1)C(F)(F)F (configuration not stated)', 'inactive'),
  ('CC(C)C(CC(=O)OCC(CO)OC(=O)CC(C(C)C)C(C)C)C(C)C (configuration not stated)', 'inactive'),
  ('CCOC(=S)SCC(=O)O', 'inactive'),
  ('CCOC(=O)Cc1ccc(Nc2nc3cc(F)c(F)cc3nc2C(=O)OCC)cc1', 'inactive'),
  ('O=C1CN2C(c3ccccc3)=NN(c3ccc([N+](=O)[O-])cc3)C2(c2ccccc2)c2cc(Cl)ccc2N1CC1CC1 (configuration not stated)', 'inactive');

For this compound, state the assay outcome: COC1OC(Cn2cc([N+](=O)[O-])nc2C)C(O)C(O)C1O (configuration not stated)
inactive

In this assay, the call recorded for `CC(=O)Nc1ccc(S(=O)(=O)/N=c2/sc(S(N)(=O)=O)nn2C)cc1` was what?
inactive

Recorded call for `CC1(C)CC(=O)c2c(nc(SSc3nc4c(c(-c5ccccc5)c3C#N)C(=O)CC(C)(C)C4)c(C#N)c2-c2ccccc2)C1` ?
inactive

Any idea what this test logged for `N#Cc1c(-c2ccccc2)c(C#N)c(=O)n(NS(=O)(=O)c2ccccc2)c1O` ?
inactive

Just curious, what result did `Cc1cc(C)nc(NS(=O)(=O)c2ccc(NC(=O)c3cc([N+](=O)[O-])cc([N+](=O)[O-])c3)cc2)n1` get here?
inactive
